Parameter Ratio EC50: see the listing below.
Tested on: Human immunodeficiency virus 1
assay procedure: Antiviral activity against HIV1 R-6 harboring integrase D10E, E11D, S17N, A23V, L28I, P30A, V72I, L101I, S119T, T122I, A124T, V201I, N222D, N232D, S230G, D253E, N254G mutant gene infected in human TZM-bl cells assessed as beta-galactosidase expression after 48 hrs by microplate luminometry relative to HIV1 R7/3 expressing wild type integrase enzyme
Type: functional
// response body must contain only the number

Using the record for CN(C)C(=O)C(=O)NC(C)(C)c1nc(C(=O)NCc2ccc(F)cc2)c(O)c(=O)n1C , report its Ratio EC50.
0.644

Continue with CNC(=O)c1cc(F)ccc1CNC(=O)c1nc(N2CCCCS2(=O)=O)c2cccnc2c1O
1.067

Continue with CN(C)C(=O)C(=O)N(C)c1nc(C(=O)NCc2ccc(F)cc2)c(O)c2ncccc12
0.412

Continue with O=C(NCc1ccc(F)cc1)c1nc(N2CCCCS2(=O)=O)c2cccnc2c1O
1.175

----------
System: Human immunodeficiency virus 1
assay procedure: Antiviral activity against HIV1 K-2 harboring integrase D10E, R20K, I113V, A124T, K188R, V201I, T206S, N232D, D278G mutant gene infected in human TZM-bl cells assessed as beta-galactosidase expression after 48 hrs by microplate luminometry relative to HIV1 R7/3 expressing wild type integrase enzyme
Type: functional
Parameter Ratio EC50: see the listing below.
// response body must contain only the number

Below are worked cases with known answers.
> print(dat)
                           substance.smiles  endpoint.value
1  CN(C)C(=O)C(=O)N(C)c1nc(C(=O)NCc2ccc(F)cc2)c(O)c2ncccc12           0.461
2  CNC(=O)c1cc(F)ccc1CNC(=O)c1nc(N2CCCCS2(=O)=O)c2cccnc2c1O           0.448
3  O=C(NCc1ccc(F)cc1)c1nc(N2CCCCS2(=O)=O)c2cccnc2c1O           0.468

Using the record for CN(C)C(=O)C(=O)NC(C)(C)c1nc(C(=O)NCc2ccc(F)cc2)c(O)c(=O)n1C , report its Ratio EC50.
0.394

Data provenance is ChEMBL document CHEMBL1649238.
